- Test Protocol: Intravenous and buccal pharmacokinetic study in the minipig
- Type: in vivo
- Measurement Conditions: male, Göttingen, in vivo, 0.01 mg/kg, buccal 0.010 mg/kg, mean, read-out: Plasma concentration Day 3 Hour 0.08, Mean
Structures can show the parent of a compound that is named as a salt.
Measurement Name: concentration at 0.08 h (ng/mL)
Numbers only, in ng/mL.

Return reported concentration at 0.08 h. Input molecule: CCCN1CCC[C@@H]2Cc3c(ccc(O)c3O)C[C@H]21 [compound 10, hydrobromide]
0.15

====

- Test Protocol: Intravenous and buccal pharmacokinetic study in the minipig
- Format: in vivo
- Measurement Conditions: male, Göttingen, in vivo, 0.01 mg/kg, buccal 0.010 mg/kg, mean, read-out: Plasma concentration Day 3 Hour 0.17, Mean
Structures can show the parent of a compound that is named as a salt.
Measurement Name: concentration at 0.17 h (ng/mL)
One number for each entry, in ng/mL.

Return reported concentration at 0.17 h. Input molecule: CCCN1CCC[C@@H]2Cc3c(ccc(O)c3O)C[C@H]21 [compound 10, hydrobromide]
0.148
